System: E. coli ATCC 25922
Format: cell-based, Escherichia coli
condition summary: ATCC 25922, 20 h
Experimental: Strain ATCC 25922GFP (ATCC, Virginia, USA), which carries a GFP-expressing plasmid, was selected for biofilm experiments. The strain’s ability to form biofilms was first verified at 37°C using Congo Red staining on agar plate containing M9gluCAAT. Congo Red dye binds curli, a major component of the biofilm extracellular matrix. […]
Ends that are not written are not given here.
Exercise: state measured MIC (mode MIC) for each of the substances provided.
Numbers only, in µM.

Known results for substances:
1. RRRPRPPYLPRPRPPPFFPPRLPPRIPPGFPPRFPPRFP-NH2 [PR-39] :: 1
2. KWKLFKKIEKVGQNIRDGIIKAGPAVAVVGQATQIAK-NH2 [CecA, cecropin A] :: 0.5
3. RRIRPRPPRLPRPRPRPLPFPRPGPRPIPRPLPFP [Bac7, bactenecin-7] :: 0.6

Enquiry: Specify measured MIC (mode MIC) for RRIRFRPPYLPRPGRRPRFPPPFPIPRIPRIP [Tur1A] .
Return: 1
